# System: RPMI-8226 leukemia
# ASSAY_EXPLANATION: NCI tumour cell line growth inhibition, 48 h
ENDPOINT_LABEL: GI50

Solved entries (count: 4):
| STRUCTURE | TESTED_SYSTEM | MEASURED |
| --- | --- | --- |
| O=C1C(Cl)=C(Nc2ccccc2)C(=O)c2ccccc21 | RPMI-8226 leukemia | 2.28 µM |
| CCSc1nc(N)c2cn[nH]c2n1 | RPMI-8226 leukemia | 21.3 µM |
| Cn1cc(-c2csc(-c3cn(C)c4ccccc34)n2)c2cnccc21 | RPMI-8226 leukemia | 1.76 µM |
| Cn1c2ccccc2c2c(=O)c3ccccc3[nH]c21 | RPMI-8226 leukemia | 29.6 µM |

// GI50 lookup, compound = `NC(=O)C1(N2CCCCC2)CCN(CCCC(=O)c2ccc(F)cc2)CC1` , result: 0.208 µM

// GI50 lookup, compound = `CC(=O)[CH-]C(C)=O.[CH2-]C.[CH2-]C.[Tl+3]` , result: > 100 µM

====

TGI values by entry
# System: A549 NSCLC
# ASSAY_EXPLANATION: NCI tumour cell line growth inhibition, 48 h
Give the quantity in µM, number only.

Solved entries (count: 2):
| COMPOUND | UNITS | MEASURED |
| --- | --- | --- |
| O=C1C(Cl)=C(Nc2ccccc2)C(=O)c2ccccc21 | µM | 42.2 |
| O=C(NCCCN(CCCCN(CCCNC(=O)C(F)(F)F)Cc1ccccc1)Cc1ccccc1)C(F)(F)F | µM | 59.5 |

// TGI lookup, compound = CCOC(=O)c1ccc(N[C@@H]2c3cc4c(cc3C(C3=CC(=O)C(=O)C(OC)=C3)[C@H]3C(=O)OCC32)OCO4)cc1 (stereo partly specified) , result: 5.67

====

# Test system: K-562 leukemia
# ASSAY_EXPLANATION: NCI tumour cell line growth inhibition, 48 h; in the data active = GI50 below about 0.43 µM; inactive = the rest
Tick one outcome: active, inactive

| COMPOUND | ANSWER_LABEL |
| --- | --- |
| CCOC1Oc2ccccc2-c2oc(=O)c(Sc3ccc(C)cc3)cc21 (stereo not given) | inactive |
| Cn1c2ccccc2c2c(=O)c3ccccc3[nH]c21 | inactive |
| CCC(=C(c1ccc(OCCCN(C)C)cc1)c1ccc(OCCCN(C)C)cc1)c1ccc(Cl)cc1 | active |
| O=C1c2cccnc2-c2nc(-c3ccncc3)cc3c2c1nc1ccccc13 | inactive |
| OB1OCc2cc(/C=C/c3cccc(C(F)(F)F)c3)ccc21 | inactive |
| O=S1(=O)NCCCN1CCNc1nccc(-c2c(-c3cccc(O)c3)nc3sccn23)n1 | inactive |

Input line: What was the test verdict on `CC(=O)[O-].CC(=O)[O-].CC(=O)[O-].CC(=O)[O-].[Mo+2].[Mo+2]` ?
Output line: inactive

Input line: What was the test verdict on `NC(=O)C1(N2CCCCC2)CCN(CCCC(=O)c2ccc(F)cc2)CC1` ?
Output line: active

Input line: What was the test verdict on OC(CN1CC1)C(O)CN1CC1 (stereo not given) ?
Output line: inactive

Input line: What was the test verdict on CC1CCCc2c1nn(C(=O)/C=C(\N)c1ccccc1)c2N (stereo not given) ?
Output line: inactive

====

TGI values by entry
# System: MDA-N
# ASSAY_EXPLANATION: NCI tumour cell line growth inhibition, 48 h
Give the quantity in µM, number only.

Solved entries (count: 3):
| COMPOUND | TESTED_SYSTEM | TGI (µM) |
| --- | --- | --- |
| CC1CC[C@@]2(OC1)OC1C[C@H]3[C@@H]4CC[C@H]5CC(OC6OC(CO)C(OC7OC(CO)C(O)C(O)C7OC7OC(CO)C(O)C(O)C7O)C(O)C6O)CCC5(C)[C@H]4CCC3(C)C1[C@@H]2C (stereo not given in full) | MDA-N | 9.31 |
| CC1(C)[C@@H]2CC[C@@]1(C)[C@@H]1O[C@@H](O[C@@H](CN)c3cc(Cl)c(OCc4ccccc4)c(OCc4ccccc4)c3)C[C@H]21 | MDA-N | 0.284 |
| COc1ccc2cc3c4cc5c(cc4cc[n+]3cc2c1OC)OCO5 | MDA-N | 28.5 |

// TGI lookup, compound = `CC[C@H]1CN2CCc3cc(OC)c(OC)cc3[C@@H]2C[C@@H]1C[C@H]1NCCc2cc(OC)c(OC)cc21` , result: 0.0589

// TGI lookup, compound = `C=CCO/N=C/c1cc(NC(=S)c2ccoc2C)ccc1Cl` , result: 32.2
